TEST DETAILS: self-splicing fitness, log relative to wild type (ln ratio); higher = more splicing; Tetrahymena group I intron in knt gene, E. coli kanamycin selection, DiMSum; sequences stand for … in CUCUCU…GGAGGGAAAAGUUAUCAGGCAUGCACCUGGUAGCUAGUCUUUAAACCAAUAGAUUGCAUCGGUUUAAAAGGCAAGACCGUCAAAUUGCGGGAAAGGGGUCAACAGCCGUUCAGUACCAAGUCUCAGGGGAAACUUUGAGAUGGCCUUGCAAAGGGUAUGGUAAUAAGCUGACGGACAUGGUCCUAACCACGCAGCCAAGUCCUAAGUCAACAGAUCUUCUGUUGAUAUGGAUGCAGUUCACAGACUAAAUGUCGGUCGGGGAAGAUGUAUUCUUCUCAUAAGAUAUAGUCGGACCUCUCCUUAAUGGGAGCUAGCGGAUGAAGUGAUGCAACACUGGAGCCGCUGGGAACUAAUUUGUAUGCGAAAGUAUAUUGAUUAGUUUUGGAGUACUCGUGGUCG;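 also: selection with 25 µg/mL kanamycin versus none on LB agar overnight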
CONDITION SET: 37 °C
self-splicing fitness (ln) vs -2: at or above is Criterion met, below is Criterion not met.

[
  {
    "RECORD SEQUENCE": "AUCAAGCAAUAUUACGUGUC",
    "CATEGORY LABEL": "Criterion not met"
  },
  {
    "RECORD SEQUENCE": "UCUUAGCAAUAUUACGUUUU",
    "CATEGORY LABEL": "Criterion met"
  },
  {
    "RECORD SEQUENCE": "UUCGAGCAAUAUUACGGCAA",
    "CATEGORY LABEL": "Criterion met"
  },
  {
    "RECORD SEQUENCE": "CACAAGCAAUAUUACGAUUU",
    "CATEGORY LABEL": "Criterion not met"
  },
  {
    "RECORD SEQUENCE": "UAUAAGCAAUAUUACGCCUU",
    "CATEGORY LABEL": "Criterion met"
  },
  {
    "RECORD SEQUENCE": "CGUCAGCAAUAUUACGUCUA",
    "CATEGORY LABEL": "Criterion met"
  },
  {
    "RECORD SEQUENCE": "UGGCAGCAAUAUUACGCGGC",
    "CATEGORY LABEL": "Criterion not met"
  },
  {
    "RECORD SEQUENCE": "AAAUAGCAAUAUUACGGGUG",
    "CATEGORY LABEL": "Criterion met"
  },
  {
    "RECORD SEQUENCE": "GCUGAGCAAUAUUACGUCUC",
    "CATEGORY LABEL": "Criterion met"
  },
  {
    "RECORD SEQUENCE": "UUCCAGCAAUAUUACGUAGA",
    "CATEGORY LABEL": "Criterion met"
  },
  {
    "RECORD SEQUENCE": "GACAAGCAAUAUUACGGUGU",
    "CATEGORY LABEL": "Criterion met"
  },
  {
    "RECORD SEQUENCE": "UUGUAGCAAUAUUACGUAGG",
    "CATEGORY LABEL": "Criterion met"
  },
  {
    "RECORD SEQUENCE": "AGCGAGCAAUAUUACGAAAU",
    "CATEGORY LABEL": "Criterion not met"
  },
  {
    "RECORD SEQUENCE": "UCGCAGCAAUAUUACGGAAU",
    "CATEGORY LABEL": "Criterion not met"
  },
  {
    "RECORD SEQUENCE": "CCAUAGCAAUAUUACGUUGA",
    "CATEGORY LABEL": "Criterion not met"
  },
  {
    "RECORD SEQUENCE": "AAAAAGCAAUAUUACGGCCG",
    "CATEGORY LABEL": "Criterion met"
  },
  {
    "RECORD SEQUENCE": "CGGCAGCAAUAUUACGCAAC",
    "CATEGORY LABEL": "Criterion not met"
  },
  {
    "RECORD SEQUENCE": "CAGCAGCAAUAUUACGCGAU",
    "CATEGORY LABEL": "Criterion met"
  },
  {
    "RECORD SEQUENCE": "AUUUAGCAAUAUUACGGUCU",
    "CATEGORY LABEL": "Criterion met"
  },
  {
    "RECORD SEQUENCE": "CCAUAGCAAUAUUACGGAAU",
    "CATEGORY LABEL": "Criterion not met"
  },
  {
    "RECORD SEQUENCE": "CGUAAGCAAUAUUACGUUAA",
    "CATEGORY LABEL": "Criterion not met"
  },
  {
    "RECORD SEQUENCE": "CGCUAGCAAUAUUACGCAGA",
    "CATEGORY LABEL": "Criterion not met"
  },
  {
    "RECORD SEQUENCE": "GCGAAGCAAUAUUACGGCAU",
    "CATEGORY LABEL": "Criterion met"
  },
  {
    "RECORD SEQUENCE": "AUCGAGCAAUAUUACGCUGG",
    "CATEGORY LABEL": "Criterion not met"
  },
  {
    "RECORD SEQUENCE": "UUUAAGCAAUAUUACGCAGG",
    "CATEGORY LABEL": "Criterion met"
  },
  {
    "RECORD SEQUENCE": "GGUGAGCAAUAUUACGCGUA",
    "CATEGORY LABEL": "Criterion met"
  },
  {
    "RECORD SEQUENCE": "AGACAGCAAUAUUACGCACG",
    "CATEGORY LABEL": "Criterion met"
  },
  {
    "RECORD SEQUENCE": "CAGUAGCAAUAUUACGUGUA",
    "CATEGORY LABEL": "Criterion not met"
  },
  {
    "RECORD SEQUENCE": "AACCAGCAAUAUUACGAGUU",
    "CATEGORY LABEL": "Criterion met"
  },
  {
    "RECORD SEQUENCE": "GUUUAGCAAUAUUACGCGAG",
    "CATEGORY LABEL": "Criterion met"
  },
  {
    "RECORD SEQUENCE": "CGAAAGCAAUAUUACGGGCU",
    "CATEGORY LABEL": "Criterion met"
  },
  {
    "RECORD SEQUENCE": "CCAAAGCAAUAUUACGAUGA",
    "CATEGORY LABEL": "Criterion met"
  },
  {
    "RECORD SEQUENCE": "UGUUAGCAAUAUUACGUUGG",
    "CATEGORY LABEL": "Criterion met"
  }
]
